The reported numbers originate from ChEMBL document CHEMBL3045290.

tested on: Helicoverpa armigera; experiment: Insecticidal activity against Helicoverpa armigera fed on artificial diet containing compound assessed as mortality at 1000 ug/ml after 96 hr; assay type: functional
List of mortality at 1000 µg/mL values.
Answer with a number only, understood to be in %.

Observe how each entry below is paired with its result.
smiles_text=O=C(Nc1ccc(F)cc1)c1ccccc1OCc1ccc(Cl)nc1 unit_tag=% observed_result=41
smiles_text=O=C(Nc1ccccn1)c1ccccc1OCc1ccc(Cl)nc1 unit_tag=% observed_result=0
smiles_text=O=C(Nc1cc(Cl)c(OC(F)(F)C(F)F)c(Cl)c1)c1ccccc1OCc1ccc(Cl)nc1 unit_tag=% observed_result=100
smiles_text=CC(C)N(C(=O)c1ccccc1OCc1ccc(Cl)nc1)C(C)C unit_tag=% observed_result=100
smiles_text=O=C(Nc1ccc(I)cc1)c1ccccc1OCc1ccc(Cl)nc1 unit_tag=% observed_result=0
smiles_text=O=C(c1ccccc1OCc1ccc(Cl)nc1)N1CCOCC1 unit_tag=% observed_result=100
smiles_text=N#CCN(C(=O)c1ccccc1OCc1ccc(Cl)nc1)c1ccccc1 unit_tag=% observed_result=100
smiles_text=COc1ccc(NC(=O)c2ccccc2OCc2ccc(Cl)nc2)cc1 unit_tag=% observed_result=0
smiles_text=CCN(CC)C(=O)c1ccccc1OCc1ccc(Cl)nc1 unit_tag=% observed_result=41
smiles_text=Cc1cc(Cl)ccc1NC(=O)c1ccccc1OCc1ccc(Cl)nc1 unit_tag=% observed_result=100

Exercise: Report mortality at 1000 µg/mL for O=C(c1ccccc1OCc1ccc(Cl)nc1)N1CCCCC1
Key: 41
